Biological target: Tyrosine-protein kinase ABL1 (Homo sapiens, UniProt P00519)
Sequence (P00519 whole entry): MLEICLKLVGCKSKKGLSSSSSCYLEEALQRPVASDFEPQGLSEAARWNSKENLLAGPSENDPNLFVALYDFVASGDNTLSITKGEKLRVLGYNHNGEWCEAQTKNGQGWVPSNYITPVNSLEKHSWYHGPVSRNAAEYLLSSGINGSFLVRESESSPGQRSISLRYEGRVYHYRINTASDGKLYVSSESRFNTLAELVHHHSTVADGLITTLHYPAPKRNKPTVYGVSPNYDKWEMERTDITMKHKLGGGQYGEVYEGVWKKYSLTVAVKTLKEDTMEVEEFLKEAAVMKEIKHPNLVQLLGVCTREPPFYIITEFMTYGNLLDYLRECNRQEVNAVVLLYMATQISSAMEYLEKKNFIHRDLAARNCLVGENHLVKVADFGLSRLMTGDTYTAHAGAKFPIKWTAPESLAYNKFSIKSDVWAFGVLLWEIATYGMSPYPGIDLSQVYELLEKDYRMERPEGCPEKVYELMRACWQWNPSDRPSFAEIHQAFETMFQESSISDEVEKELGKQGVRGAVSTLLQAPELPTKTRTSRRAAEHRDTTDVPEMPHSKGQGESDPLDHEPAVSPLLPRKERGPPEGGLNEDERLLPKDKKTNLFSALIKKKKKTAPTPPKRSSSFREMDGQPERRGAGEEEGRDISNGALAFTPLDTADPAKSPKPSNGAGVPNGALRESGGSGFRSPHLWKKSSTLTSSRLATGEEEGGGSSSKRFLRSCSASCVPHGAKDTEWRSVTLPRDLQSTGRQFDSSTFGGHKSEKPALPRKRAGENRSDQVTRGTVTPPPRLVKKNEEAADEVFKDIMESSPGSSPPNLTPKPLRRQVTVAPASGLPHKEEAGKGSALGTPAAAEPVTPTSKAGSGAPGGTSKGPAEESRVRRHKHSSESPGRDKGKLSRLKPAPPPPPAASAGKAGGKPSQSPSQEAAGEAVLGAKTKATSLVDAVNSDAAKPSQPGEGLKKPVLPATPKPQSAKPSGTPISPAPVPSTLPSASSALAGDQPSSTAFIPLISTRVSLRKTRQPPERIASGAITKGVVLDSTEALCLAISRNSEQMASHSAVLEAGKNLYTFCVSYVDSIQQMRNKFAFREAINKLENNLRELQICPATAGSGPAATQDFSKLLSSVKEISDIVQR
Assay: Inhibition of ABL ACT labeling site in human Huh-7 cell lysate at 1 uM by KiNativ Profiling analysis relative to control
Type: subcellular
Would you please tag the item true (1) when its inhibition is 90% or above, and false (0) when it is below?

Evaluate `CCN1CCN(Cc2ccc(NC(=O)c3ccc(C)c(OCc4cnc5[nH]ccc5c4OC)c3)cc2C(F)(F)F)CC1` : inhibition at minimum 90%?
true (1)

Evaluate `CNc1cc(Oc2cc(C(=O)Nc3cc(N4CCN(C)CC4)cc(C(F)(F)F)c3)ccc2C)ncn1` : inhibition at minimum 90%?
false (0)

Evaluate `CCN1CCN(Cc2ccc(NC(=O)c3ccc(C)c(Oc4ncnc5cc(OC)c(OC)cc45)c3)cc2C(F)(F)F)CC1` : inhibition at minimum 90%?
false (0)

Evaluate `COc1c(/C=C/c2cc(C(=O)Nc3ccc(OC4CCN(C)CC4)c(C(F)(F)F)c3)ccc2C)cnc2[nH]ccc12` : inhibition at minimum 90%?
true (1)

Evaluate `CCN1CCN(Cc2ccc(NC(=O)c3ccc(C)c(/C=C/c4cnc5[nH]ccc5c4OC)c3)cc2)CC1` : inhibition at minimum 90%?
true (1)

Evaluate `CCN1CCN(Cc2ccc(NC(=O)c3ccc(C)c(Oc4cc(NC)ncn4)c3)cc2C(F)(F)F)CC1` : inhibition at minimum 90%?
false (0)

Evaluate `CCN1CCN(Cc2ccc(NC(=O)c3ccc(C)c(Oc4ncnc5[nH]ncc45)c3)cc2C(F)(F)F)CC1` : inhibition at minimum 90%?
true (1)

###

Biological target: Mitogen-activated protein kinase kinase kinase kinase 2 (Homo sapiens)
Sequence (Q12851 whole entry): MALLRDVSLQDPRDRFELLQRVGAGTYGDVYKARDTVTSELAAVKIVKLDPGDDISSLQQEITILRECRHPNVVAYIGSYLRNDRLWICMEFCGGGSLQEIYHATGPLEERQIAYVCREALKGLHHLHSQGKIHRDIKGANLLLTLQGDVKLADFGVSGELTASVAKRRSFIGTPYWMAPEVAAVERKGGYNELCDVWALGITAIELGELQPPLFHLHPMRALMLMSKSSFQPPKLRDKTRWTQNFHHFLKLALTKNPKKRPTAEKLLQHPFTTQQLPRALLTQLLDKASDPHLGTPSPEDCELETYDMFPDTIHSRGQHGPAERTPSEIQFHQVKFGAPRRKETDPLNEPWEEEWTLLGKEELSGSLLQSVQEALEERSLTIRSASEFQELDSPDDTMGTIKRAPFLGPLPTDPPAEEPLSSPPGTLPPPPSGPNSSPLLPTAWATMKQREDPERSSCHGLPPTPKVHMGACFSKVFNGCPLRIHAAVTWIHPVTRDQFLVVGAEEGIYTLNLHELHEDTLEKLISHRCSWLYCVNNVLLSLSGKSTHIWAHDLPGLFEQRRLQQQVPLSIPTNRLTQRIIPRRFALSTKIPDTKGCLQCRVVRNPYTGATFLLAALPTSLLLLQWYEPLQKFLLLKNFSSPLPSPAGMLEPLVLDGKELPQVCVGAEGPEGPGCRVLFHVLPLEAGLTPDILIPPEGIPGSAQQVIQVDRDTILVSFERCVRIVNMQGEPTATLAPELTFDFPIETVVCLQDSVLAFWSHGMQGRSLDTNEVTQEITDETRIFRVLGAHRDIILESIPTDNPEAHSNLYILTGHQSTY
Experiment: Inhibition of MAP4K2 (unknown origin) Lys1 labeling site by KiNativ Profiling analysis
Field: label. Allowed values: Condition met (IC50 < 0.03 µM) or Condition not met (IC50 >= 0.03 µM).

Field: below-cutoff. Rule: recorded IC50 strictly less than 0.03 µM. Subject: `CCN1CCN(Cc2ccc(NC(=O)c3cccc(Oc4ccnc5[nH]ccc45)c3)cc2C(F)(F)F)CC1`
Condition met

Field: below-cutoff. Rule: recorded IC50 strictly less than 0.03 µM. Subject: `CCN1CCN(Cc2ccc(NC(=O)c3ccc(C)c(CCc4cnc5[nH]ccc5c4OC)c3)cc2C(F)(F)F)CC1`
Condition met

Field: below-cutoff. Rule: recorded IC50 strictly less than 0.03 µM. Subject: `CCN1CCN(Cc2ccc(NC(=O)c3ccc(C)c(Oc4ncnc5[nH]ncc45)c3)cc2C(F)(F)F)CC1`
Condition not met

Field: below-cutoff. Rule: recorded IC50 strictly less than 0.03 µM. Subject: `CCN1CCN(Cc2ccc(NC(=O)c3ccc(OC)c(Oc4ncnc5[nH]ccc45)c3)cc2C(F)(F)F)CC1`
Condition not met

Field: below-cutoff. Rule: recorded IC50 strictly less than 0.03 µM. Subject: `CCN1CCN(Cc2ccc(NC(=O)c3ccc(C)c(Oc4ncnc5[nH]ccc45)c3)cc2C(F)(F)F)CC1`
Condition met

Field: below-cutoff. Rule: recorded IC50 strictly less than 0.03 µM. Subject: `CNc1cc(Oc2cc(C(=O)Nc3cc(-n4cnc(C)c4)cc(C(F)(F)F)c3)ccc2C)ncn1`
Condition not met

Field: below-cutoff. Rule: recorded IC50 strictly less than 0.03 µM. Subject: `Cc1ccc(C(=O)Nc2cc(N3CCN(C)CC3)cc(C(F)(F)F)c2)cc1Oc1ncnc2[nH]ccc12`
Condition not met

###

Target: Ephrin type-B receptor 4 (Homo sapiens)
Sequence (P54760 whole entry): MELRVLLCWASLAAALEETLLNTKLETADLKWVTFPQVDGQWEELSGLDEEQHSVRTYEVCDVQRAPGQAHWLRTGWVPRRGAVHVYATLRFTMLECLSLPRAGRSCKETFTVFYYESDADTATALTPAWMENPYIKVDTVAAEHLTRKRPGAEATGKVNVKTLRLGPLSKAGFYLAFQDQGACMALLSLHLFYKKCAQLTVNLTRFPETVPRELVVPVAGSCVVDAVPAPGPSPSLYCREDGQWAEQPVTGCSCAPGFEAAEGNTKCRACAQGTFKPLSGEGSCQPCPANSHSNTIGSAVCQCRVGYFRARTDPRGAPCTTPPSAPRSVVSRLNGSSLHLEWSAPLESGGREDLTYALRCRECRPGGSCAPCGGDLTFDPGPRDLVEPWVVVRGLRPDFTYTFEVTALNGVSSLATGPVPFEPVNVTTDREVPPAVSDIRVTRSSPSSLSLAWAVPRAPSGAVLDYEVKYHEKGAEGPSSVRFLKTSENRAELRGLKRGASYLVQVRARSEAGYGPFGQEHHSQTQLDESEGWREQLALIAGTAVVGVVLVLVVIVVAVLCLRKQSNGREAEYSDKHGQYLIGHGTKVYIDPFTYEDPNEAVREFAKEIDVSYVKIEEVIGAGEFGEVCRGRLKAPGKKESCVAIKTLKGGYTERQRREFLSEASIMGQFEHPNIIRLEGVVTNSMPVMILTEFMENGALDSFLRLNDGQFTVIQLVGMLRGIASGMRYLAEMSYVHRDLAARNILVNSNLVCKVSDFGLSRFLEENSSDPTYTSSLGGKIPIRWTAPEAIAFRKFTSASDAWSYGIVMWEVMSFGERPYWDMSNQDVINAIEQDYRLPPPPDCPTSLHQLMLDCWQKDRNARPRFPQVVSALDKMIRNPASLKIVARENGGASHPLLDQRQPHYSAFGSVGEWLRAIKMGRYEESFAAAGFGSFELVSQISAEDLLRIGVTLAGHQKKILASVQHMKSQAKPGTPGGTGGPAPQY
Assay: Inhibition of EphB4 (unknown origin) ACT labeling site by KiNativ Profiling analysis
endpoint: pIC50
To interpret pIC50, take it as minus log10 of a concentration measured in moles per litre.

Using the record for `CCN1CCN(Cc2ccc(NC(=O)c3ccc(C)c(Oc4ccnc5[nH]ccc45)c3)cc2C(F)(F)F)CC1` , report its pIC50.
6.00

Using the record for `CCN1CCN(Cc2ccc(NC(=O)c3ccc(C)c(/C=C/c4cnc5[nH]ccc5c4OC)c3)cc2C(F)(F)F)CC1` , report its pIC50.
7.27

###

Target: Mitogen-activated protein kinase 10 (Homo sapiens, UniProt P53779)
Sequence (P53779 whole entry): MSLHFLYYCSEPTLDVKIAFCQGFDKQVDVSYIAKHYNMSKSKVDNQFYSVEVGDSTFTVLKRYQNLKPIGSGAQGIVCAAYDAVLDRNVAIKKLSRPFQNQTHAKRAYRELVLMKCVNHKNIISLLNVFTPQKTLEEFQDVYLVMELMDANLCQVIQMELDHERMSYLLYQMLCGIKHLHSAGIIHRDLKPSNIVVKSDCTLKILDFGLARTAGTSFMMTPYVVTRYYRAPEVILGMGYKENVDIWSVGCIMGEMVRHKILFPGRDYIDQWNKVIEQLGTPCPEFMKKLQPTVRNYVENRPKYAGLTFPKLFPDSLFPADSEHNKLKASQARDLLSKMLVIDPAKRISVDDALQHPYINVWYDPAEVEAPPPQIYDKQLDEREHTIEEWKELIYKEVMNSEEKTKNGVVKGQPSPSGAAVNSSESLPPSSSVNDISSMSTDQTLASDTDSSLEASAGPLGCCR
Test: Inhibition of JNK3 (unknown origin) Lys2 labeling site by KiNativ Profiling analysis
pIC50: −log10 of the molar value.
endpoint: pIC50

Using the record for `CCN1CCN(Cc2ccc(NC(=O)c3ccc(C)c(/C=C/c4cnc5[nH]ccc5c4OC)c3)cc2C(F)(F)F)CC1` , report its pIC50.
< 5.00

Using the record for `CCN1CCN(Cc2ccc(NC(=O)c3ccc(C)c(Oc4ccnc5[nH]ccc45)c3)cc2C(F)(F)F)CC1` , report its pIC50.
< 5.00

###

Biological target: Proto-oncogene tyrosine-protein kinase Src (Homo sapiens)
Experiment: Inhibition of SRC (unknown origin) Lys1 labeling site by KiNativ Profiling analysis
endpoint: IC50

Using the record for `CCN1CCN(Cc2ccc(NC(=O)c3ccc(C)c(/C=C/c4cnc5[nH]ccc5c4OC)c3)cc2C(F)(F)F)CC1` , report its IC50.
204 nM

Using the record for `CCN1CCN(Cc2ccc(NC(=O)c3ccc(C)c(Oc4ccnc5[nH]ccc45)c3)cc2C(F)(F)F)CC1` , report its IC50.
113 nM

###

Kindly state inhibition for each of the entries shown.
Biological target: Tyrosine-protein kinase ABL1 (Homo sapiens, UniProt P00519)
Assay: Inhibition of ABL ACT labeling site in human Huh-7 cell lysate at 1 uM by KiNativ Profiling analysis relative to control
Format: subcellular
Lab book: enter the figure in %, no units written.

Using the record for `COc1c(/C=C/c2cc(C(=O)Nc3cccc(C(C)(C)C#N)c3)ccc2C)cnc2[nH]ccc12` , report its inhibition.
62.2

Using the record for `CNc1cc(Oc2cc(C(=O)Nc3cc(-n4cnc(C)c4)cc(C(F)(F)F)c3)ccc2C)ncn1` , report its inhibition.
59.7

Using the record for `CCN1CCN(Cc2ccc(NC(=O)c3ccc(C)c(Oc4ncnc5[nH]c(C)cc45)c3)cc2C(F)(F)F)CC1` , report its inhibition.
59.6

Using the record for COc1c(/C=C/c2cc(C(=O)Nc3ccc(CN4CCC(N(C)C)C4)c(C(F)(F)F)c3)ccc2C)cnc2[nH]ccc12 (centres undefined) , report its inhibition.
66.6

###

Kindly state pIC50 for each of the entries shown.
Target: Mitogen-activated protein kinase kinase kinase 20 (Homo sapiens)
Sequence (Q9NYL2 whole entry): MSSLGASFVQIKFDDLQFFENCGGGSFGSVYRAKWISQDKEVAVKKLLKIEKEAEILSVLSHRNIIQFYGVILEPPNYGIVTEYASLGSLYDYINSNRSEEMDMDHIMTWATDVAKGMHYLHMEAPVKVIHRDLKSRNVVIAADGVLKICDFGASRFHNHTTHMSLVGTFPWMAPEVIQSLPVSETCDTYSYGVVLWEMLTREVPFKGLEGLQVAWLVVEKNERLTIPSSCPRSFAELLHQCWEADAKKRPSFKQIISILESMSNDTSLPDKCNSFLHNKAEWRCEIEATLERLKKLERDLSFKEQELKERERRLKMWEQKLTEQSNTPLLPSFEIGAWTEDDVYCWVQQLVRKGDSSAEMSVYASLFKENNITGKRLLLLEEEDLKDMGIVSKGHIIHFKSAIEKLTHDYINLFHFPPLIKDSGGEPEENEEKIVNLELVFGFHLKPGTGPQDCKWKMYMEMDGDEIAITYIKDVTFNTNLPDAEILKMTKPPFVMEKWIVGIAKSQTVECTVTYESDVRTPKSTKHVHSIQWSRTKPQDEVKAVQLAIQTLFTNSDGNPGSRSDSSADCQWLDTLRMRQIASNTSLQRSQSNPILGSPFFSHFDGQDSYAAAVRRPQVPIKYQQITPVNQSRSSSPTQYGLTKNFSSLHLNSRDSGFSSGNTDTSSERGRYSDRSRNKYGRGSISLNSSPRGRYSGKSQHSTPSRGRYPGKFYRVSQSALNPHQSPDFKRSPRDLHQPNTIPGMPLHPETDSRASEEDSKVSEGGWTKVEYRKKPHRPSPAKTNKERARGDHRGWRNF
Assay: Inhibition of ZAK (unknown origin) Lys1 labeling site by KiNativ Profiling analysis
To interpret pIC50, take it as minus log10 of a concentration measured in moles per litre.

Record lookup: for Mitogen-activated protein kinase kinase kinase 20 (Homo sapiens), what pIC50 belongs to `CCN1CCN(Cc2ccc(NC(=O)c3ccc(C)c(Oc4ccnc5[nH]ccc45)c3)cc2C(F)(F)F)CC1` ?
6.16

Record lookup: for Mitogen-activated protein kinase kinase kinase 20 (Homo sapiens), what pIC50 belongs to `COc1c(CCc2cc(C(=O)Nc3cc(-n4cnc(C)c4)cc(C(F)(F)F)c3)ccc2C)cnc2[nH]ccc12` ?
7.01

Record lookup: for Mitogen-activated protein kinase kinase kinase 20 (Homo sapiens), what pIC50 belongs to `CCN1CCN(Cc2ccc(NC(=O)c3ccc(C)c(Oc4ccnc(C(=O)NC)c4)c3)cc2C(F)(F)F)CC1` ?
6.35

Record lookup: for Mitogen-activated protein kinase kinase kinase 20 (Homo sapiens), what pIC50 belongs to `CCN1CCN(Cc2ccc(NC(=O)c3ccc(C)c(Oc4ncnc5[nH]ncc45)c3)cc2C(F)(F)F)CC1` ?
6.90

Record lookup: for Mitogen-activated protein kinase kinase kinase 20 (Homo sapiens), what pIC50 belongs to `CCN1CCN(Cc2ccc(NC(=O)c3ccc(C)c(/C=C/c4cnc5[nH]ccc5c4OC)c3)cc2C(F)(F)F)CC1` ?
6.33

Record lookup: for Mitogen-activated protein kinase kinase kinase 20 (Homo sapiens), what pIC50 belongs to `COc1c(/C=C/c2cc(C(=O)Nc3cccc(C(C)(C)C#N)c3)ccc2C)cnc2[nH]ccc12` ?
6.99

Record lookup: for Mitogen-activated protein kinase kinase kinase 20 (Homo sapiens), what pIC50 belongs to `CCN1CCN(Cc2ccc(C(=O)Nc3cccc(CCc4cnc5[nH]ccc5c4OC)c3)cc2C(F)(F)F)CC1` ?
6.75

Record lookup: for Mitogen-activated protein kinase kinase kinase 20 (Homo sapiens), what pIC50 belongs to `CCN1CCN(Cc2ccc(NC(=O)c3ccc(C)c(CCc4cnc5[nH]ccc5c4OC)c3)cc2C(F)(F)F)CC1` ?
7.14

Record lookup: for Mitogen-activated protein kinase kinase kinase 20 (Homo sapiens), what pIC50 belongs to `CCN1CCN(Cc2ccc(NC(=O)c3cccc(CCc4cnc5[nH]ccc5c4OC)c3)cc2C(F)(F)F)CC1` ?
6.52

Record lookup: for Mitogen-activated protein kinase kinase kinase 20 (Homo sapiens), what pIC50 belongs to `CCN1CCN(Cc2ccc(NC(=O)c3ccc(C)c(Oc4ccnc(NC)n4)c3)cc2C(F)(F)F)CC1` ?
6.26

Record lookup: for Mitogen-activated protein kinase kinase kinase 20 (Homo sapiens), what pIC50 belongs to `CCN1CCN(Cc2ccc(NC(=O)c3cccc(/C=C/c4cnc5[nH]ccc5c4OC)c3)cc2C(F)(F)F)CC1` ?
6.40

###

Biological target: UniProt:P16591
Sequence (P16591 whole entry, looked up): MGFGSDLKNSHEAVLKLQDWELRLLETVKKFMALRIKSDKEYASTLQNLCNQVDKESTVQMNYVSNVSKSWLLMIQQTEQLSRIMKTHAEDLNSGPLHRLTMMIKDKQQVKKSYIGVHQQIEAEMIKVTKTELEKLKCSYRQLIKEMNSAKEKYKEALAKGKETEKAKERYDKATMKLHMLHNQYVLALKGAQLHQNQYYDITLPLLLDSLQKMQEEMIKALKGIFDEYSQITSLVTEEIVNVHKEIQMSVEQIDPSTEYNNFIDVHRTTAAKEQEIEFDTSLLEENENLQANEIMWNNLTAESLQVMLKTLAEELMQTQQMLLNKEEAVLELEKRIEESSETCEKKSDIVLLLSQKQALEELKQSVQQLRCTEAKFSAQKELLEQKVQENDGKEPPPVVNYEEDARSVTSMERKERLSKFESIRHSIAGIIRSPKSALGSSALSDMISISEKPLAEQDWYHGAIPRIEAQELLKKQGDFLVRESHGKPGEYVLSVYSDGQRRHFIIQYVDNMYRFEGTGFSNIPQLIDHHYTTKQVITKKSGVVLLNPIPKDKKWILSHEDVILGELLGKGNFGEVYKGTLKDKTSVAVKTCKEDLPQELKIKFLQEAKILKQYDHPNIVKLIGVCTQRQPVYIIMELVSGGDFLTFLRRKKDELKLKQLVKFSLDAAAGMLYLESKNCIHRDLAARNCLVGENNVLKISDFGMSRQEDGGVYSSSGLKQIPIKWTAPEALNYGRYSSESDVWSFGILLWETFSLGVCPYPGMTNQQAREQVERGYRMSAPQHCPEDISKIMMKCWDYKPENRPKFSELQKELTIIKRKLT
Assay: Inhibition of FER Lys1 labeling site in human Huh-7 cell lysate at 1 uM by KiNativ Profiling analysis relative to control
Assay type: subcellular
Kindly state inhibition for each of the entries shown.
Lab book: enter the figure in %, no units written.

Using the record for `CCN1CCN(Cc2ccc(NC(=O)c3ccc(C)c(Oc4cc(NC)ncn4)c3)cc2C(F)(F)F)CC1` , report its inhibition.
75.8

Using the record for `CCN1CCN(Cc2ccc(NC(=O)c3ccc(C)c(Oc4ncnc5cc(OC)c(OC)cc45)c3)cc2C(F)(F)F)CC1` , report its inhibition.
92.9

Using the record for `CNc1cc(Oc2cc(C(=O)Nc3cc(N4CCN(C)CC4)cc(C(F)(F)F)c3)ccc2C)ncn1` , report its inhibition.
10.6

Using the record for `CNc1cc(Oc2cc(C(=O)Nc3cc(-n4cnc(C)c4)cc(C(F)(F)F)c3)ccc2C)ncn1` , report its inhibition.
18.2
